Values from ChEMBL document CHEMBL1143279

- Tested on: Vero
- protocolDetails: Cytotoxicity against african green monkey Vero cells after 72 hrs
- Assay type: cell-based
- settings: Chlorocebus sabaeus
recordedMetric: IC50

CN1CC(OCc2ccc(OC(F)(F)F)cc2)Cn2nc([N+](=O)[O-])cc21 (centres undefined)    > 128 µM
O=[N+]([O-])c1nc2n(n1)C[C@@H](OCc1ccc(OC(F)(F)F)cc1)CO2    > 128 µM
O=[N+]([O-])c1cn2c(n1)SCC(OCc1ccc(OC(F)(F)F)cc1)C2 (centres undefined)    > 128 µM

Hi there! I need IC50 for each item below, if you can.
1. O=[N+]([O-])c1cc2n(n1)CC(OCc1ccc(OC(F)(F)F)cc1)CO2 (centres undefined)
2. O=[N+]([O-])c1cn2c(n1)S(=O)(=O)CC(OCc1ccc(OC(F)(F)F)cc1)C2 (centres undefined)
3. O=[N+]([O-])c1cn2c(n1)OCC(OCc1ccc(OC(F)(F)F)cc1)C2 (centres undefined)
4. O=[N+]([O-])c1cn2c(n1)[S+]([O-])CC(OCc1ccc(OCc3ccccc3)cc1)C2 (centres undefined)
5. O=[N+]([O-])c1cn2c(n1)OCC(OCc1ccc(OCc3ccccc3)cc1)C2 (centres undefined)
6. O=[N+]([O-])c1cn2c(n1)[S+]([O-])CC(OCc1ccc(OC(F)(F)F)cc1)C2 (centres undefined)

Solution:
88 µM
> 128 µM
> 128 µM
63 µM
> 128 µM
> 128 µM

* * *

- Tested on: Mycobacterium tuberculosis
- protocolDetails: Antimicrobial activity against Mycobacterium tuberculosis assessed as growth inhibition at 100 uM after 11 days under anaerobic condition by luminescence-based low oxygen recovery assay
- Assay type: functional
- settings: 264 h
recordedMetric: inhibition at 100 µM (%)
Numbers only, in %.

CN1CC(OCc2ccc(OC(F)(F)F)cc2)Cn2nc([N+](=O)[O-])cc21 (stereo not given)    37
O=[N+]([O-])c1cc2n(n1)CC(OCc1ccc(OC(F)(F)F)cc1)CO2 (stereo not given)    86
O=[N+]([O-])c1cn2c(n1)CCC(OCc1ccc(OCc3ccccc3)cc1)C2 (stereo not given)    49

Hi there! I need inhibition at 100 µM for each item below, if you can.
1. O=[N+]([O-])c1cn2c(n1)CCC(OCc1ccc(OC(F)(F)F)cc1)C2 (stereo not given)
2. O=[N+]([O-])c1cn2c(n1)[S+]([O-])CC(OCc1ccc(OCc3ccccc3)cc1)C2 (stereo not given)
3. O=[N+]([O-])c1cn2c(n1)S(=O)(=O)CC(OCc1ccc(OCc3ccccc3)cc1)C2 (stereo not given)
4. O=[N+]([O-])c1cc2n(n1)CC(OCc1ccc(OCc3ccccc3)cc1)CN2 (stereo not given)
5. O=[N+]([O-])c1cc2n(n1)CC(OCc1ccc(OCc3ccccc3)cc1)CO2 (stereo not given)
6. O=[N+]([O-])c1cn2c(n1)NCC(OCc1ccc(OC(F)(F)F)cc1)C2 (stereo not given)
7. CN1CC(OCc2ccc(OCc3ccccc3)cc2)Cn2nc([N+](=O)[O-])cc21 (stereo not given)

Solution:
1: 75; 2: 20; 3: 79; 4: 41; 5: 19; 6: 64; 7: 3

* * *

- Tested on: Mycobacterium tuberculosis
- protocolDetails: Antimicrobial activity against Mycobacterium tuberculosis assessed as growth inhibition at 100 uM after 8 days under aerobic condition by alamar blue assay
- Type: functional
- settings: 192 h
Answer each item with its documented inhibition at 100 µM.
Numbers only, in %.

O=[N+]([O-])c1cc2n(n1)CC(OCc1ccc(OC(F)(F)F)cc1)CN2 (stereo not given)    61
O=[N+]([O-])c1cn2c(n1)CCC(OCc1ccc(OCc3ccccc3)cc1)C2 (stereo not given)    5
O=[N+]([O-])c1cn2c(n1)NCC(OCc1ccc(OC(F)(F)F)cc1)C2 (stereo not given)    63
O=[N+]([O-])c1cn2c(n1)[S+]([O-])CC(OCc1ccc(OCc3ccccc3)cc1)C2 (stereo not given)    23
O=[N+]([O-])c1cc2n(n1)CC(OCc1ccc(OCc3ccccc3)cc1)CN2 (stereo not given)    55
CN1CC(OCc2ccc(OCc3ccccc3)cc2)Cn2nc([N+](=O)[O-])cc21 (stereo not given)    58
O=[N+]([O-])c1cn2c(n1)[S+]([O-])CC(OCc1ccc(OC(F)(F)F)cc1)C2 (stereo not given)    87
O=[N+]([O-])c1cc2n(n1)CC(OCc1ccc(OC(F)(F)F)cc1)CO2 (stereo not given)    89
O=[N+]([O-])c1cn2c(n1)S(=O)(=O)CC(OCc1ccc(OCc3ccccc3)cc1)C2 (stereo not given)    61
O=[N+]([O-])c1nc2n(n1)C[C@@H](OCc1ccc(OC(F)(F)F)cc1)CO2    84

Hi there! I need inhibition at 100 µM for each item below, if you can.
1. O=[N+]([O-])c1nc2n(n1)C[C@H](OCc1ccc(OCc3ccccc3)cc1)CO2
2. O=[N+]([O-])c1cc2n(n1)CC(OCc1ccc(OCc3ccccc3)cc1)CO2 (stereo not given)
3. CN1CC(OCc2ccc(OC(F)(F)F)cc2)Cn2nc([N+](=O)[O-])cc21 (stereo not given)
4. O=[N+]([O-])c1cn2c(n1)S(=O)(=O)CC(OCc1ccc(OC(F)(F)F)cc1)C2 (stereo not given)
5. O=[N+]([O-])c1nc2n(n1)C[C@H](OCc1ccc(OC(F)(F)F)cc1)CO2

Solution:
[18, 38, 61, 89, 81]
